Hello, the source for this data is the supplement of paper PMC7877785, in case you need it.

# protocol: self-splicing fitness, log relative to wild type (ln ratio); higher = more splicing; Tetrahymena group I intron in knt gene, E. coli kanamycin selection, DiMSum; sequences stand for … in CUCUCU…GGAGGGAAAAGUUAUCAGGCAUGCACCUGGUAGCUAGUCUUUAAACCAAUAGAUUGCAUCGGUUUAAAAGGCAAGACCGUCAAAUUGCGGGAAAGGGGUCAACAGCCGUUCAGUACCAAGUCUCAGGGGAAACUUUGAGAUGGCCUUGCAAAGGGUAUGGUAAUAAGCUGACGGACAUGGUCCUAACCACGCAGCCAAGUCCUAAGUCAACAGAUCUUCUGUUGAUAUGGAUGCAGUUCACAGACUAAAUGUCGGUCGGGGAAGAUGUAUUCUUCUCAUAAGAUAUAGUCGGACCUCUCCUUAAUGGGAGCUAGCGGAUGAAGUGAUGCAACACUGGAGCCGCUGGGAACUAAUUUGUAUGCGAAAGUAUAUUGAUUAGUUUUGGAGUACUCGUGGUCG;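 further: selection with 25 µg/mL kanamycin versus none on LB agar overnight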
# condition: 30 °C
valueKind: self-splicing fitness (ln)
Could you respond with only the numeric value?

Reported self-splicing fitness (ln) ( `AGCUAGCAAUAUUACGUUGG` ) = -3.61

Reported self-splicing fitness (ln) ( `AACCAGCAAUAUUACGGCGG` ) = -0.585

Reported self-splicing fitness (ln) ( `GUACAGCAAUAUUACGUGUA` ) = -3.18

Reported self-splicing fitness (ln) ( `GUGGAGCAAUAUUACGAGGA` ) = -3.96

Reported self-splicing fitness (ln) ( `UCGCAGCAAUAUUACGAUCA` ) = -1.27

Reported self-splicing fitness (ln) ( `ACAAAGCAAUAUUACGUUCU` ) = -0.539

Reported self-splicing fitness (ln) ( `GUCCAGCAAUAUUACGCCGU` ) = -1.29

Reported self-splicing fitness (ln) ( `UCACAGCAAUAUUACGUGUG` ) = -4.09

----------
# protocol: self-splicing fitness, log relative to wild type (ln ratio); higher = more splicing; Tetrahymena group I intron in knt gene, E. coli kanamycin selection, DiMSum; sequences stand for … in CUCUCU…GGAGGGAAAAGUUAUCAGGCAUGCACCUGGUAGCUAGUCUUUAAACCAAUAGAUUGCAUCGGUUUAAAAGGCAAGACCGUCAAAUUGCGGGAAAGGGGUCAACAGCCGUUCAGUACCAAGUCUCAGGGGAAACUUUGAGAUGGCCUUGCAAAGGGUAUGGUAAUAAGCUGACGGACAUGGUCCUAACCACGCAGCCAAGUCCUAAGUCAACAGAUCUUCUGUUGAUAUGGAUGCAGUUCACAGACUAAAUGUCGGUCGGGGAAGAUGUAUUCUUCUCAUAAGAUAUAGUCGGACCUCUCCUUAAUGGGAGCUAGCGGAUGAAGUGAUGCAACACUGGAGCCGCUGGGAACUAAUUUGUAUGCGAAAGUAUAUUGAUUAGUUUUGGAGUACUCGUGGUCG
# condition: 37 °C
Respond with YES for self-splicing fitness (ln) values of -2 and above, NO for values below.

In: Entry `CUCCAGCAAUAUUACGUCGG` : is its self-splicing fitness (ln) no less than -2?
Out: NO

In: Entry `CUCCAGCAAUAUUACGUAGG` : is its self-splicing fitness (ln) no less than -2?
Out: YES

In: Entry `UAAAAGCAAUAUUACGACCU` : is its self-splicing fitness (ln) no less than -2?
Out: YES

In: Entry `CUGAAGCAAUAUUACGACGU` : is its self-splicing fitness (ln) no less than -2?
Out: YES

In: Entry `UACAAGCAAUAUUACGCCUG` : is its self-splicing fitness (ln) no less than -2?
Out: YES

In: Entry `CGAGAGCAAUAUUACGUAAG` : is its self-splicing fitness (ln) no less than -2?
Out: YES

In: Entry `GACCAGCAAUAUUACGACAC` : is its self-splicing fitness (ln) no less than -2?
Out: YES

In: Entry `GGUCAGCAAUAUUACGUAAA` : is its self-splicing fitness (ln) no less than -2?
Out: YES

In: Entry `AGCAAGCAAUAUUACGGAGG` : is its self-splicing fitness (ln) no less than -2?
Out: NO

In: Entry `GUUCAGCAAUAUUACGACUU` : is its self-splicing fitness (ln) no less than -2?
Out: YES

In: Entry `AGACAGCAAUAUUACGUCAG` : is its self-splicing fitness (ln) no less than -2?
Out: YES

In: Entry `UCAAAGCAAUAUUACGACCA` : is its self-splicing fitness (ln) no less than -2?
Out: YES

In: Entry `GCCAAGCAAUAUUACGCGUA` : is its self-splicing fitness (ln) no less than -2?
Out: YES

In: Entry `ACUCAGCAAUAUUACGUGAU` : is its self-splicing fitness (ln) no less than -2?
Out: YES

In: Entry `GUGGAGCAAUAUUACGACAA` : is its self-splicing fitness (ln) no less than -2?
Out: YES

In: Entry `GGCAAGCAAUAUUACGCUAG` : is its self-splicing fitness (ln) no less than -2?
Out: NO

In: Entry `CACAAGCAAUAUUACGAAGA` : is its self-splicing fitness (ln) no less than -2?
Out: NO

In: Entry `GUGUAGCAAUAUUACGCGCG` : is its self-splicing fitness (ln) no less than -2?
Out: NO

In: Entry `AUCUAGCAAUAUUACGGACA` : is its self-splicing fitness (ln) no less than -2?
Out: YES

In: Entry `GUUCAGCAAUAUUACGAGCA` : is its self-splicing fitness (ln) no less than -2?
Out: YES

In: Entry `GAGGAGCAAUAUUACGUAAU` : is its self-splicing fitness (ln) no less than -2?
Out: NO

In: Entry `CUAGAGCAAUAUUACGUAAG` : is its self-splicing fitness (ln) no less than -2?
Out: YES

In: Entry `GGCUAGCAAUAUUACGGUAC` : is its self-splicing fitness (ln) no less than -2?
Out: YES

In: Entry `GUAUAGCAAUAUUACGCUUA` : is its self-splicing fitness (ln) no less than -2?
Out: YES

In: Entry `UGCUAGCAAUAUUACGUCUC` : is its self-splicing fitness (ln) no less than -2?
Out: NO

In: Entry `GUCAAGCAAUAUUACGUUAA` : is its self-splicing fitness (ln) no less than -2?
Out: YES

In: Entry `AUGGAGCAAUAUUACGAUCU` : is its self-splicing fitness (ln) no less than -2?
Out: YES

In: Entry `AACAAGCAAUAUUACGCCAC` : is its self-splicing fitness (ln) no less than -2?
Out: NO

In: Entry `UAGGAGCAAUAUUACGGGUG` : is its self-splicing fitness (ln) no less than -2?
Out: YES

In: Entry `UCCUAGCAAUAUUACGCAUC` : is its self-splicing fitness (ln) no less than -2?
Out: YES

In: Entry `GCCCAGCAAUAUUACGAGCA` : is its self-splicing fitness (ln) no less than -2?
Out: YES
